// data source = patent US12441718B2

Target: CYP2C8 (Homo sapiens, UniProt P10632)
Construct: isoform-specific substrates incubated with human liver microsomes; tissue Eurofins ITEMG232 (protocol number); host or cells: human liver microsomes
Sequence (P10632 1-490): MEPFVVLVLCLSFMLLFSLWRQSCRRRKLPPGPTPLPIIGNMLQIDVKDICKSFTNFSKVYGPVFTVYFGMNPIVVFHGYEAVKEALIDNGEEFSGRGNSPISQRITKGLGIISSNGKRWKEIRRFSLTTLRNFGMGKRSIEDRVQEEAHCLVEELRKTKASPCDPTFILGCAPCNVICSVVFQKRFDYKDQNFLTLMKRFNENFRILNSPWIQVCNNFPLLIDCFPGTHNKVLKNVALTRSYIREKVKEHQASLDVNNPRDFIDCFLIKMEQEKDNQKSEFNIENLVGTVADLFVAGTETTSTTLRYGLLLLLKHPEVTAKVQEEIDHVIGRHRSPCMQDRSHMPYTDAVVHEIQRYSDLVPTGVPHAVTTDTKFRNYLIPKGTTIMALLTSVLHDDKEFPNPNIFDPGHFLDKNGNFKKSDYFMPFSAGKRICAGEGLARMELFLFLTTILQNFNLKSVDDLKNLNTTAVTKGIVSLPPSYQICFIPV
Test: CYP inhibition in human liver microsomes (Eurofins ITEMG232)
Format: in vitro ADME
Details: human, probe paclitaxel and amodiaquine, substrate paclitaxel and amodiaquine, read-out: CYP2C8 Inh %
Items are presented alongside their recorded inhibition at 10 µM.

COMPOUND	inhibition at 10 µM, %
Cc1nc(NS(=O)(=O)c2ccc(CC(C)C)cc2-c2ccc(Cn3ccnc3C(C)(C)C)c(F)c2)oc1C [Example 24]	59.6
COc1ncnc(OC)c1NS(=O)(=O)c1ccc(CC(C)C)cc1-c1ccc(Cn2ccnc2C(C)(C)C)cc1 [Example 19]	54.3
CC(C)Cc1ccc(S(=O)(=O)Nc2ncc(Cl)cn2)c(-c2ccc(Cn3ccnc3C(C)(C)C)cc2)c1 [Example 2]	88.7
CC(C)Cc1ccc(S(=O)(=O)Nc2ncc(Br)cn2)c(-c2ccc(Cn3ccnc3C(C)(C)C)cc2)c1 [Example 1]	87.8
CCc1nccn1Cc1ccc(-c2cc(CC(C)C)sc2S(=O)(=O)Nc2ncccn2)cc1F [Example 45]	64
CC(C)Cc1ccc(S(=O)(=O)Nc2ncc(C(F)(F)F)cn2)c(-c2ccc(Cn3ccnc3C(C)(C)C)cc2)c1 [Example 4]	94.3
COc1ccc(NS(=O)(=O)c2ccc(CC(C)C)cc2-c2ccc(Cn3ccnc3C(C)(C)C)cc2)nn1 [Example 14]	74.3
Cc1cnc(NS(=O)(=O)c2ccc(CC(C)C)cc2-c2ccc(Cn3ccnc3C(C)(C)C)cc2)nc1 [Example 20]	40.9
CC(C)Cc1ccc(S(=O)(=O)Nc2nccs2)c(-c2ccc(Cn3ccnc3C(C)(C)C)c(F)c2)c1 [Example 8]	88.3
CC(C)Cc1ccc(S(=O)(=O)Nc2ncc(F)cn2)c(-c2ccc(Cn3ccnc3C(C)(C)C)cc2)c1 [Example 3]	89.2
CC(C)Cc1ccc(S(=O)(=O)Nc2ncccn2)c(-c2ccc(Cn3ccnc3C(C)C)c(F)c2)c1 [Example 27]	21.3
CC(C)Cc1ccc(S(=O)(=O)Nc2ncc(Br)cn2)c(-c2ccc(Cn3ccnc3C(C)(C)C)c(F)c2)c1 [Example 11]	89.6
COc1ncncc1NS(=O)(=O)c1ccc(CC(C)C)cc1-c1ccc(Cn2ccnc2C(C)(C)C)c(F)c1 [Example 22]	58.1
Cc1nccn1Cc1ccc(-c2cc(CC(C)C)sc2S(=O)(=O)Nc2ncccn2)cc1F [Example 44]	43
Cc1cnc(NS(=O)(=O)c2ccc(CC(C)C)cc2-c2ccc(Cn3ccnc3C(C)(C)C)c(F)c2)nc1 [Example 26]	9.9
